biological target: SmACC-1 (Schistosoma mansoni, UniProt V5WAE7); construct: full-length, human codon-optimized, C-terminal FLAG tag; homomeric channel; test: YFP halide sensor iodide flux assay in transfected HEK-293 cells, dose response (agonist)
Sequence (V5WAE7 24-804): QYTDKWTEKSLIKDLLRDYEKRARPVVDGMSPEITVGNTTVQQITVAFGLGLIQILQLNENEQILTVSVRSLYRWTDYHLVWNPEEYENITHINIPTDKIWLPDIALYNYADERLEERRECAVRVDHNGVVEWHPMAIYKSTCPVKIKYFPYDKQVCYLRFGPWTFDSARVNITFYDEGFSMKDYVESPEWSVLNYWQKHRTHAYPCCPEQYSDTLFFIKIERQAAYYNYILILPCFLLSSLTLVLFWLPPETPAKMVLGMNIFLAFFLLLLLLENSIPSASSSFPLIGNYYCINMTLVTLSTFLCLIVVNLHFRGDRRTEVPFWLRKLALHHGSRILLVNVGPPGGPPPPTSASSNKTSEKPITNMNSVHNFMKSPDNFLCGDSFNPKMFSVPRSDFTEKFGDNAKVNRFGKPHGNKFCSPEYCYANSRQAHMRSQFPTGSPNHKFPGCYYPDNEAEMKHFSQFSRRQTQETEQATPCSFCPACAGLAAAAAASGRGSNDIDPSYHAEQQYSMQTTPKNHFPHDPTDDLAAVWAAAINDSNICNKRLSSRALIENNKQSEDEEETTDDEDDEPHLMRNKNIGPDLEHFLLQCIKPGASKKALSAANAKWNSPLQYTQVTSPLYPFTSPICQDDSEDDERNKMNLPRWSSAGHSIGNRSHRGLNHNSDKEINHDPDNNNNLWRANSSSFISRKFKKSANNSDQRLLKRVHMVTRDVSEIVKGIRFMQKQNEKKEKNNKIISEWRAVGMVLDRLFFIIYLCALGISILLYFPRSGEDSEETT
endpoint_label: EC50 (µM)
Please give a number only; it is taken to be in µM.

-- ask Look up and report measured EC50 (SmACC-1 (Schistosoma mansoni, UniProt V5WAE7)) for the following compound: `CN1CCC[C@H]1c1cccnc1`
-- reply 4.3
